Test system: CAKI-1
Test: NCI tumour cell line growth inhibition, 48 h
Active and inactive are the calls of the source. Rule as the data show it: active = GI50 up to about 1.1 µM and inactive = higher.
outcome-measure: GI50

NC(=O)c1ncn(C2OC(CO)C(O)C2O)c1O (stereo unspecified)    83.4 µM (inactive)

Provide GI50 values for the following items, in order.
1. Oc1cn(-c2ccc(Cl)cc2)nc1-c1nnc(Nc2ccccc2)o1
2. O=[N+]([O-])C(/C=C(\Cl)[N+](=O)[O-])=C(Nc1ccccc1)Nc1ccccc1
3. CCOC(=O)NCC(=O)NCC(=O)NCC(N)=O
4. O=C(CCCCCC(=O)N1CC(CCl)c2ccc([N+](=O)[O-])cc21)N1CC(CCl)c2ccc([N+](=O)[O-])cc21 (stereo unspecified)
5. CC1=C2C(=O)c3ccccc3C2=C(C)S(=O)(=O)O1
6. COc1cc2cc3c4c(cc(OC)c(OC)c4c2cc1OC)CCN3C(=O)N(C)C

1. 32.3 µM (inactive)
2. 13.7 µM (inactive)
3. > 100 µM (inactive)
4. > 100 µM (inactive)
5. > 10 µM (inactive)
6. 34.8 µM (inactive)

Provide GI50 values for the following items, in order.
1. COCOc1ccc(C2(O)Oc3cc(OCOC)ccc3C2C)c(O)c1 (stereo unspecified)
2. CC#CC1C2CCCC1(CSc1ccccc1)NC(=O)O2 (stereo unspecified)
3. Cc1ccc(/C=N/Nc2cc(C)c3ccccc3n2)s1

1. 16.3 µM (inactive)
2. > 100 µM (inactive)
3. 11.4 µM (inactive)

Requested read-out GI50, target or system CAKI-1, entry CCCCCCCCCc1cc(=O)c2ccc(OCc3ccccc3)cc2o1
2.92 µM (inactive)

----------
Test system: HT-29
Test: NCI tumour cell line growth inhibition, 48 h
Activity calls are given as the source filed them. No stated cut-off is given here; in the data, active = GI50 up to about 1.1 µM and inactive = higher.
Returns: one label drawn from 1 (yes) for active, 0 (no) for inactive

These solved cases illustrate the format of a correct answer.
CC(=O)NNc1nc(C)c(C(=O)/C=C/c2ccccc2Cl)s1    0 (no)
O=[N+]([O-])c1ccc2[nH]c(=S)[nH]c(=S)c2c1    0 (no)
O=c1[nH]/c(=C/c2ccc(OCc3ccccc3)cn2)c(=O)[nH]/c1=C/c1ccc(F)cc1    1 (yes)
C=C1C(=O)OC2/C=C(\C)C3OC3/C=C(/C(=O)OC)C(O)C(OC(=O)C3(C)OC3C)C12 (centres undefined)    0 (no)
Clc1ccc(OCc2nnc(CCCCCCCCc3nnc(COc4ccc(Cl)cc4Cl)o3)o2)c(Cl)c1    0 (no)
CCOC(=O)c1ccc(/N=C2\S/C(=C\C(=S)Nc3ccccc3)N(c3ccccc3)\C2=N/c2ccc(C(=O)OCC)cc2)cc1    0 (no)

Record request — test call for COc1ccc(C(CC(=O)C(C)(C)CN2CCCCC2)SCCS(=O)(=O)O)cc1 (centres undefined)
0 (no)

And COCOc1c(C(OCOC)c2cnc(Sc3ccccc3)n2C)ccc(OC)c1OC (centres undefined) ?
0 (no)

And Cc1ccc(NC(=O)CC2SC(Nc3cccc(Cl)c3C)=NC2=O)cc1 (centres undefined) ?
0 (no)

----------
Record form. Attribute: GI50. Fill in for each entry.
Tested on: OVCAR-5
Test: NCI tumour cell line growth inhibition, 48 h
Active and inactive are the calls of the source. No stated cut-off is given here; in the data, active = GI50 up to about 1.1 µM and inactive = higher.

See these solved cases before continuing.
CCOC(=O)C1Cc2c(cc3c4c(cccc24)N(C(C)=O)C3)N(C)C1 (stereo not given)    17.7 µM (inactive)
O=C1CCCC2=C(N1)C(=O)C=CC2=O    33.4 µM (inactive)
O=C(c1ccc(Cl)cc1Cl)N(/N=C/C=C/c1ccccc1)c1nnc(-c2ccccc2)c(-c2ccccc2)n1    > 100 µM (inactive)

Provide GI50 values for the following items, in order.
1. Cc1ccccc1Nc1nc2ccccc2nc1NS(=O)(=O)c1ccccc1
2. O=C1CC(C(CC(=O)c2ccccc2)c2ccccc2)C(=O)c2ccccc2N1 (stereo not given)

1. > 100 µM (inactive)
2. 56 µM (inactive)

----------
System: SN12C
Test: NCI tumour cell line growth inhibition, 48 h
Calls of active or inactive are those of the source. Cut-off read from the data, not from the text of the source: active = GI50 up to about 1.1 µM and inactive = higher.
Returns: one label drawn from active, inactive

These solved cases illustrate the format of a correct answer.
CC1OC(OC2C(OC(=O)[C@@H]3CC(C)(C)C[C@@H]4C5=CC[C@@H]6[C@@]7(C)C[C@H](O)[C@H](OC8OC(CO)C(O)C(O)C8O)[C@@](C)(CO)C7[C@H](O)C[C@@]6(C)[C@]5(C)C[C@@H](O)[C@H]43)OCC(O)C2O)C(O)C(O)C1O (some centres undefined)    inactive
O=C1NC(Nc2ccccc2)=N/C1=C\c1c(Cl)cccc1Cl    inactive
CC1=C(C(=O)OCCc2ccc([N+](=O)[O-])cc2)C(c2ccccc2[N+](=O)[O-])C(C(=O)OC(C)C)=C(C)N1 (centres undefined)    inactive

Please turn your attention to the following entry.
Record request — test call for Nc1ccc2c(c1)N(C(=O)CCCC(=O)N1CC(CCl)c3ccc(N)cc31)CC2CCl (centres undefined)
active

----------
Tested on: EKVX
Experiment: NCI tumour cell line growth inhibition, 48 h
Active and inactive are the calls of the source. No stated cut-off is given here; in the data, active = GI50 up to about 1.1 µM and inactive = higher.
Record form. Attribute: GI50. Fill in for each entry.

See these solved cases before continuing.
Cc1cccc2c(NCCN(C)C)c3cccc(C(=O)NCCN(C)C)c3nc12    0.383 µM (active)
CCOC(=O)C1Cc2c(cc3c4c(cccc24)N(C(C)=O)C3)N(C)C1 (centres undefined)    9.59 µM (inactive)
Cc1ccc(NC(=O)CC2SC(Nc3cccc(Cl)c3C)=NC2=O)cc1 (centres undefined)    70 µM (inactive)
CC1=C(C(=O)OCCc2ccc([N+](=O)[O-])cc2)C(c2ccccc2[N+](=O)[O-])C(C(=O)OC(C)C)=C(C)N1 (centres undefined)    2.36 µM (inactive)
O=C(CCCCCC(=O)N1CC(CCl)c2ccc([N+](=O)[O-])cc21)N1CC(CCl)c2ccc([N+](=O)[O-])cc21 (centres undefined)    > 100 µM (inactive)

Provide GI50 values for the following items, in order.
1. CC(NC1=NCCO1)c1ccsc1 (centres undefined)
2. COc1c(C)c(C/C=C(\C)CCCCO)c(OC)c2ccccc12
3. O=C1C(c2ccccc2)=C(c2ccccc2)C(c2ccc(Cc3ccc(C4=C(c5ccccc5)C(=O)C(c5ccccc5)=C4c4ccccc4)cc3)cc2)=C1c1ccccc1
4. CC1CCCC(C(=O)/C(=C/c2cccc(Cl)c2)C(=O)C(=O)O)C1 (centres undefined)

54.7 µM (inactive)
61.5 µM (inactive)
> 100 µM (inactive)
47.1 µM (inactive)

----------
Tested on: 786-0
Assay: NCI tumour cell line growth inhibition, 48 h
Calls of active or inactive are those of the source. No stated cut-off is given here; in the data, active = GI50 up to about 1.1 µM and inactive = higher.
outcome-measure: GI50

See these solved cases before continuing.
CCOC(CN(C)C(=O)Nc1cccc2ccccc12)OCC    > 10 µM (inactive)
O=C(N/C(=C\c1ccc([N+](=O)[O-])cc1)c1nc2c(O)nc(S)nc2[nH]1)c1ccccc1    > 100 µM (inactive)
Cc1cc(S(=O)(=O)Nc2nc3ccccc3c(=O)n2N)c(S)cc1Cl    21.3 µM (inactive)
CC(C)Oc1cccc(N2C(CCc3c[nH]c4ccc(Br)cc34)=NS(=O)(=O)c3cnccc32)c1    45 µM (inactive)

Provide GI50 values for the following items, in order.
1. CCOC(=O)C(NC(=O)CC(C)C)(N1CCN(c2cc3c(cc2F)c(=O)c(C(=O)O)cn3C2CC2)CC1)C(F)(F)F (stereo not given)
2. OCCC1(O)CCC(O)CC1 (stereo not given)
3. NNC(=O)C(=O)N/N=C(\CCC(=O)Nc1ccc(Cl)cc1)Cc1nc2ccccc2s1
4. CC(=O)C1Cn2c(nc3ccccc32)C[Se]1 (stereo not given)

29.5 µM (inactive)
> 100 µM (inactive)
17.3 µM (inactive)
3.32 µM (inactive)

Provide GI50 values for the following items, in order.
1. Nc1nc(N)c(N=O)c(Nc2ccc(I)cc2)n1
2. COc1cc(OC(=O)c2c(O)cc(O)c(O)c2C)cc(C)c1C(=O)Oc1cc(C)c(C(=O)O)c(O)c1

1: 25.5 µM (inactive); 2: > 100 µM (inactive)

----------
System: MOLT-4
Assay: NCI tumour cell line growth inhibition, 48 h
Active and inactive are the calls of the source. Rule as the data show it: active = GI50 up to about 1.1 µM and inactive = higher.
Record form. Attribute: GI50. Fill in for each entry.

Cc1cccc(C(O)c2cccnc2)c1O (stereo unspecified)    > 100 µM (inactive)

Provide GI50 values for the following items, in order.
1. COC(=O)n1c(C)c(C=O)c2ccc(OC)cc21
2. O=C(O)[C@H]1NC[C@@H]2ON=C(Br)[C@@H]21
3. CCOC(=S)SCC(=O)O
4. Cc1ccc(N(C(=O)Nc2ccc(F)c(Cl)c2)C2=NCC(C)S2)cc1 (stereo unspecified)
5. c1cc2[se][se]c3c4cccc5[se][se]c(c(c1)c23)c54
6. CCCCCCCCCCCCc1ccsc1-c1ccc(-c2ccc(-c3sccc3CCCCCCCCCCCC)s2)s1
7. CC(=O)C1=C(c2ccccc2)N(C2OC(CO)C(O)C(O)C2O)C(S)=C(C#N)C1c1ccc(Cl)cc1 (stereo unspecified)

1. 42.2 µM (inactive)
2. > 100 µM (inactive)
3. > 100 µM (inactive)
4. 31.6 µM (inactive)
5. > 100 µM (inactive)
6. > 100 µM (inactive)
7. 15.8 µM (inactive)

Provide GI50 values for the following items, in order.
1. COc1ccc(C[n+]2cccc(O)c2)cc1
2. CCOP(=O)(OCC)c1cc(-c2ccccc2)ccc1N
3. CSc1ccc(C(=O)C(=O)c2ccc(SC)s2)s1

["> 100 µM (inactive)", "> 100 µM (inactive)", "2.51 µM (inactive)"]

Provide GI50 values for the following items, in order.
1. COCC[N+](CCNC(=O)c1cccc2c(N)c3cccc(C)c3nc12)(CCOC)Cc1ccc([N+](=O)[O-])cc1
2. COC(=O)/C(=N\N)C(C(=O)C(=O)Nc1cccc([N+](=O)[O-])c1)c1nc2ccc(C(=O)c3ccccc3)cc2nc1O (stereo unspecified)
3. Cc1sc2nc3n(c(=O)c2c1C)N=CN(c1ccc(Cl)cc1)C3
4. CC#CC(O)(C(=O)OC1CCCN(C)C1)C1=CC=CCC1 (stereo unspecified)

["3.57 µM (inactive)", "15 µM (inactive)", "> 100 µM (inactive)", "> 100 µM (inactive)"]

Provide GI50 values for the following items, in order.
1. CN(C)CCNC(=O)c1c2ccccc2cc2ccccc12
2. Cc1cnc2c(c1C)C(=O)c1ccccc1C2=O

["3.99 µM (inactive)", "28.3 µM (inactive)"]

Provide GI50 values for the following items, in order.
1. NCc1ccc(O)c(O)c1
2. C=C1C(=O)OC2/C=C(\C)C3OC3/C=C(/C(=O)OC)C(O)C(OC(=O)C3(C)OC3C)C12 (stereo unspecified)

1: 27.1 µM (inactive); 2: 0.681 µM (active)

Provide GI50 values for the following items, in order.
1. CCOC(=O)c1cc2c(OCc3ccccc3)c(OC)cc3c2c(n1)N(c1ccc(OC)cc1)C(C)C3 (stereo unspecified)
2. C[C@]12CCCC(=O)C1(O)C[C@H](C(=O)O)CC2 (stereo partly specified)

1. > 50 µM (inactive)
2. > 100 µM (inactive)

Provide GI50 values for the following items, in order.
1. CC1=C2C(=O)c3ccccc3C2=C(C)S(=O)(=O)O1
2. Cc1cccc(C)c1NC(=O)C(C#N)C1=C(Cl)C(=O)c2ccccc2C1=O (stereo unspecified)
3. COc1cc(C2c3cc4c(cc3[C@@H](N(C)C)[C@H]3COC(=O)C23)OCO4)cc(OC)c1O (stereo partly specified)
4. CC(C)C(CC(=O)OCC(CO)OC(=O)CC(C(C)C)C(C)C)C(C)C (stereo unspecified)
5. COC(=O)C1CCC(=O)N1C(c1ccccc1)c1ccc(OC)c(OC)c1 (stereo unspecified)
6. O=[N+]([O-])c1ccc(NN/N=N/c2ccc(-c3nc4ccccc4[nH]3)cc2)c([N+](=O)[O-])c1

> 10 µM (inactive)
1.93 µM (inactive)
38.2 µM (inactive)
10.1 µM (inactive)
> 10 µM (inactive)
5.14 µM (inactive)

Provide GI50 values for the following items, in order.
1. Cc1cc(C)nc(NS(=O)(=O)c2ccc(NC(=O)c3cc([N+](=O)[O-])cc([N+](=O)[O-])c3)cc2)n1
2. CSC[C@H](NC(=O)COc1cccc2cnccc12)C(=O)NC(Cc1ccccc1)C(O)C(=O)N1CSC[C@H]1C(=O)NC(C)(C)C (stereo partly specified)
3. CN(C)C(=C1c2cc([N+](=O)[O-])ccc2-c2ccc([N+](=O)[O-])cc21)N(C)C
4. CCOc1ccc2nc(NC(=O)/C(CC(=O)CC(C3=C(O)c4ccccc4CC3=O)c3ccccc3)=N\O)sc2c1 (stereo unspecified)
5. Oc1ccc(Nc2nc(Cl)c3nc[nH]c3n2)cc1
6. O=C(CCCN1CC=C(n2c(=O)[nH]c3ccccc32)CC1)c1cccs1

["1.79 µM (inactive)", "17.7 µM (inactive)", "5.24 µM (inactive)", "> 100 µM (inactive)", "> 100 µM (inactive)", "45.6 µM (inactive)"]
